// provenance: patent US20260327314

target: Human CD16A 158F (human); test: BLI
Sequence (chain, as listed by the source): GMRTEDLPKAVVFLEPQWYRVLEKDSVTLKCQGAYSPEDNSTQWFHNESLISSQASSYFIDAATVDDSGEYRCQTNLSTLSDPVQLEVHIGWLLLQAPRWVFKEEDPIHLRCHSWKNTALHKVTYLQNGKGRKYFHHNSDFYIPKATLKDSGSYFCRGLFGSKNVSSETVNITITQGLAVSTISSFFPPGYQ
pKd: −log10 of the molar value.
endpoint-name: pKd

CD16-VH-RM82 (antibody) EVQLVESGGGLVQPGGSLRLSCAASGFTFSNYGMSWVRQAPGKGLEWIGSIYYSVSTNYNPSLKSLVTISRDNSKNTLYLQMNSLRAEDTATYYCARESIDYWGQGTLVTVSS ... 8.28
BM156-01 (antibody) EVQLVESGGGLVQPGGSLRLSCAASGFTFSNYGMSWVRQAPGKGLEWIGSIYYSGSTNYNPSLKSLVTISRDNSKNTLYLQMNSLRAEDTATYYCARESIDYWGQGTLVTVSS ... 8.29
CD16-VH-RM81 (antibody) EVQLVESGGGLVQPGGSLRLSCAASGFTFSNYGMSWVRQAPGKGLEWIGSIYYTGSTNYNPSLKSLVTISRDNSKNTLYLQMNSLRAEDTATYYCARESIDYWGQGTLVTVSS ... 8.61
CD16-VH-RM77 (antibody) EVQLVESGGGLVQPGGSLRLSCAASGFTFSNYGMSWVRQAPGKGLEWIGSIYYNGSTNYNPSLKSLVTISRDNSKNTLYLQMNSLRAEDTATYYCARESIDYWGQGTLVTVSS ... 8.91
CD16-VH-RM80 (antibody) EVQLVESGGGLVQPGGSLRLSCAASGFTFSNYGMSWVRQAPGKGLEWIGSIYYDGSTNYNPSLKSLVTISRDNSKNTLYLQMNSLRAEDTATYYCARESIDYWGQGTLVTVSS ... 8.40
CD16-VH-RM72 (antibody) EVQLVESGGGLVQPGGSLRLSCAASGFTFSNYGMSWVRQAPGKGLEWIGSIYYSGQTNYNPSLKSLVTISRDNSKNTLYLQMNSLRAEDTATYYCARESIDYWGQGTLVTVSS ... 8.34

(a) CD16-VH-RM76 (antibody) EVQLVESGGGLVQPGGSLRLSCAASGFTFSNYGMSWVRQAPGKGLEWIGSIYYSGETNYNPSLKSLVTISRDNSKNTLYLQMNSLRAEDTATYYCARESIDYWGQGTLVTVSS
(b) CD16-VH-RM73 (antibody) EVQLVESGGGLVQPGGSLRLSCAASGFTFSNYGMSWVRQAPGKGLEWIGSIYYSGTTNYNPSLKSLVTISRDNSKNTLYLQMNSLRAEDTATYYCARESIDYWGQGTLVTVSS
Inquiry: Which of the two gives a bigger number for pKd: a or b ? Use the label to indicate which entry you chose.
Reply text: b
(b: 8.62, a: 8.22)
